Ref: PubChem BioAssay (NCI)

- System: NCI-H460 lung
- experiment.summary: NCI-60 one-dose screen, 48 h
- conditions.used: 10 µM
The panel holds about 83,000 compounds, 20% with a hit somewhere; the sample as a whole holds those more often. Active and inactive are the calls of the source. The calls were made as follows: active = growth percent below 10; inactive = the rest.
Please answer using one outcome listed in yes (1) = active, no (0) = inactive

Record excerpt, results attached:
CN1C(=O)C2(Nc3cc(Cl)ccc3S2)c2cc(Cl)ccc21 (configuration not stated)
no (0)
COc1ccc(-c2cc(-c3ccc(Cl)cc3)nc(SCCCC(=O)NO)n2)cc1
yes (1)
CCCCCCCCCCOC(c1ccccc1)c1ccccc1
no (0)
Cc1cc(=O)n2nnc3cc(C(F)(F)F)ccc3n12
no (0)

Query: recorded result category for "CCOc1ccccc1/C=N/N1CCCCCC1" in this test
no (0)

# repeat for "COc1ccc2nc3cc(Cl)ccc3c(NCCCNCCO)c2c1"
yes (1)

# repeat for "O=C(Nc1ccccc1)Nc1ncnc2c1ncn2-c1ccccc1"
yes (1)

# repeat for "COc1ccccc1-n1c(-c2sc(NC(C)=O)nc2C)n[nH]c1=S"
no (0)

# repeat for "O=S(=O)(O)c1ccc(Cl)cc1"
no (0)

* * *

- Tested on: HS 578T breast
- experiment.summary: NCI-60 one-dose screen, 48 h (100 = growth as untreated, 0 = no growth, -100 = all killed)
- conditions.used: 10 µM
Compounds without any hit were thinned out: in the full panel of roughly 83,000, 20% have a hit.
Overview of recorded growth for various compounds
Numbers only here, please. The scale is %.

Sample records with growth:
CCc1c2c(nc3ccc(OC(=O)N4CCC(N5CCCCC5)CC4)cc13)-c1cc3c(c(=O)n1C2)COC(=O)[C@]3(O)CC
102
O=C(CCC(C(=O)c1ccccc1)c1ccccc1)c1ccccc1 (stereo not given)
80.1
CN(C)CCOc1cccc(NC2=C(Cl)C(=O)C(Nc3cccc(OCCN(C)C)c3)=C(Cl)C2=O)c1
0.785
C(=N\Nc1ncnc2sc3c(c12)CCNC3)/c1cccc2ccccc12
96.8
Fc1ccc2[nH]cc(-c3nc(-c4ccsc4)cs3)c2c1
96.8
CCCCCOC(=O)Nc1nc(=O)n(C2O[C@H](C)[C@@H](O)[C@H]2O)cc1F (stereo not given in full)
104

Report growth for "N#Cc1ccc(C(=O)CSc2nccc(Nc3ccc(C(=O)O)cc3)n2)cc1" please.
98.7

# repeat for "CN(C)CCCOc1cccc(NC2=C(Cl)C(=O)C(Nc3cccc(OCCCN(C)C)c3)=C(Cl)C2=O)c1"
-2.49

# repeat for "COc1ccc(Nc2cnc3cc(NS(=O)(=O)c4ccc(C)cc4)ccc3n2)cc1"
82.7

# repeat for "C=CCn1c(SCC(=O)Nc2ccc(C(=O)/C=C/c3ccc(OC)cc3)cc2)nnc1-c1ccc(OC)c(OC)c1"
86.4

* * *

- Tested on: NCI-H460 lung
- experiment.summary: NCI-60 one-dose screen, 48 h (100 = growth as untreated, 0 = no growth, -100 = all killed)
- conditions.used: 10 µM
About 83,000 compounds went through this panel and 20% of them were active in at least one assay; those are over-represented in the sample as a whole.
The label is true (1) for growth below 20% and false (0) for growth equal to or exceeding 20%.

Criterion: growth strictly below 20%. Is it met by CO[C@H]1CC(O[C@@H]2/C(C)=C/C[C@@H]3C[C@@H](C[C@]4(C=C[C@H](C)[C@@H](C5CCCCC5)O4)O3)OC(=O)[C@@H]3C=C(C)[C@@H](O)[C@H]4OC/C(=C\C=C\[C@@H]2C)[C@]43O)O[C@@H](C)C1O[C@H]1C[C@H](OC)[C@@H](O)[C@H](C)O1 (stereo partly drawn) ?
true (1)

# repeat for "O=C(CCCCC(=O)Oc1c(Cl)cc(Cl)cc1[N+](=O)[O-])Oc1c(Cl)cc(Cl)cc1[N+](=O)[O-]"
false (0)

# repeat for C[C@@H](O)[C@H]1C(=O)N2C(C(=O)O)=C(SC3CN[C@H](C(=O)N(C)C)C3)[C@H](C)[C@H]12 (stereo partly drawn)
false (0)

* * *

Overview of recorded growth for various compounds
- Tested on: BT-549 breast
- experiment.summary: NCI-60 one-dose screen, 48 h (100 = growth as untreated, 0 = no growth, -100 = all killed)
- conditions.used: 10 µM
The panel holds about 83,000 compounds, 20% with a hit somewhere; the sample as a whole holds those more often.
Numbers only here, please. The scale is %.

Report growth for "O=C(CCCCCCC(=O)Nc1ccccc1)NO" please.
53.9

# repeat for "Cc1ccc(-n2c(C)nn3c(=O)c4c5c(sc4nc23)CN(C)CC5)cc1"
97.6

# repeat for "CCn1cc(C(=O)O)c(=O)c2cc(F)c(N3CCNCC3)cc21"
110

# repeat for CC(C)=CCC/C(C)=C/CC/C(C)=C/CC/C=C(\C)CC/C=C(\C)CCC(=O)Nc1ccn(C2OC(CO)C(O)C2(F)F)c(=O)n1 (stereo not given)
18.3

# repeat for CCC(c1ccc(OC)cc1)C(CC)c1ccc(O)c(CN2CCN(C)CC2)c1 (stereo not given)
76.9

# repeat for COc1ccc(/C=C2\CCCC3=C2NC(N)=NC3c2ccc(OC)c(OC)c2)cc1OC (stereo not given)
36.1

# repeat for "Cc1noc(C)c1CSc1ccccc1C(=O)N1CCN(c2cccc(C(F)(F)F)c2)CC1"
61

# repeat for "COc1ccc(-c2csc(NC(=O)c3ccc(Cc4n[nH]c(=O)c5cccnc45)cc3)n2)cc1"
-17.8

# repeat for COc1ccc2c(c1)C(CC(=O)NN)CCC2 (stereo not given)
103

# repeat for "COC(=O)c1c[nH]c2cc(OC(C)C)c(OC(C)C)cc2c1=O"
112

* * *

- Tested on: SF-539 CNS
- experiment.summary: NCI-60 one-dose screen, 48 h (100 = growth as untreated, 0 = no growth, -100 = all killed)
- conditions.used: 10 µM
Compounds without any hit were thinned out: in the full panel of roughly 83,000, 20% have a hit.
property.label: growth (%)
Numbers only here, please. The scale is %.

COc1cc(-c2nc3ccccc3o2)cc(CN2CCCCC2)c1O
83.5
Oc1ccc(/C=N/N=C2c3ccccc3-c3ccccc32)c(O)c1
89.1
Clc1ccc(C2=NN=C3C(Cc4ccccc4)=Nc4ccccc4N3C2)cc1
105

Report growth for "COc1ccc(-c2n[nH]nc2-c2cc(OC)c3c(c2OC)OCO3)cc1" please.
-2.99

# repeat for "O=C1/C=C/[C@@H](O)[C@@H]2C[C@@H](O)C[C@H]2/C=C/CCC[C@@H](C(F)(F)F)O1"
105

# repeat for "Nc1cc(-c2ccncc2)c[nH]c1=O"
104

# repeat for "CC(=O)N[C@H](C(=O)N[C@@H](CCCNC(=N)N)C(=O)N[C@@H](CCCCN)C(=O)N[C@@H](CCCNC(=N)N)C(=O)N[C@]1(C)CCC/C=C\CCC[C@@](C)(C(=O)N[C@@H](CC(C)C)C(=O)N[C@@H](CC(C)C)C(=O)N[C@@H](CCC(N)=O)C(=O)N[C@@H](CCC(=O)O)C(=O)N[C@@H](CCCNC(=N)N)C(=O)N[C@@H](CCC(=O)O)C(=O)N[C@@H](CC(C)C)C(=O)N[C@H](C(=O)N[C@@H](CCC(=O)O)C(N)=O)C(C)C)NC(=O)[C@H](CCCNC(=N)N)NC(=O)[C@H](CC(C)C)NC1=O)C(C)C"
102

# repeat for "c1ccc(CSc2ncccc2-c2nnc(SCCN3CCOCC3)o2)cc1"
132

# repeat for "O=[N+]([O-])c1cccc(/C=N/NC(=S)NC23CC4CC(CC(C4)C2)C3)c1"
92.3

# repeat for "COc1cccc2ccc(CC(O)(c3ccccc3)c3ccccc3)nc12"
103

# repeat for "CCN(CC)CCOC(=O)c1cc(OCc2ccccc2)c(OCc2ccccc2)c(OCc2ccccc2)c1"
81.1

* * *

- Test system: SN12C renal
- experiment.summary: NCI-60 one-dose screen, 48 h (100 = growth as untreated, 0 = no growth, -100 = all killed)
- conditions.used: 10 µM
This is part of a sample that, as a whole, favours compounds with a hit. Of some 83,000 tested, about 20% had one in any assay.
Overview of recorded growth for various compounds
Numbers only here, please. The scale is %.

Sample records with growth:
O=S(=O)(O)c1ccc(Cl)cc1
100
COc1cc(C(=O)/C=C/c2c[nH]c3ccccc23)cc(OC)c1OC
25.2

Report growth for "C=CCNCCN1C(=O)c2ccc3c4c(ccc(c24)C1=O)C(=O)N(CCNCC=C)C3=O" please.
-78

# repeat for "O=C1/C=C/[C@@H](O)[C@@H]2C[C@@H](O)C[C@H]2/C=C/CCC[C@H](CCc2ccc(C(F)(F)F)cc2)O1"
1.34

# repeat for "O=C(CSc1nnc(-c2cccnc2SCc2ccccc2)o1)Nc1nc(Cl)cc(Cl)n1"
103

* * *

- System: SK-MEL-28 melanoma
- experiment.summary: NCI-60 one-dose screen, 48 h (100 = growth as untreated, 0 = no growth, -100 = all killed)
- conditions.used: 10 µM
About 83,000 compounds went through this panel and 20% of them were active in at least one assay; those are over-represented in the sample as a whole.
Classify on growth using band A (below 60%), band B (60% to below 90%), band C (90% or more)

Record excerpt, results attached:
Cc1cc(CSc2ccccc2C(=O)N2CC=C(c3ccccc3)CC2)on1
band C
COc1cc(Cc2cc(-c3ccccc3)n[nH]c2=O)cc(OC)c1OC
band B
N=C1S/C(=C/c2ccc(-c3ccc4c(c3)C(=O)NC4=O)o2)C(=O)N1c1ccc(Br)cc1
band A
O=C(CCCSc1nc(-c2ccccc2)cc(-c2ccc(Cl)cc2)n1)NO
band A
CCOC(=O)c1cc(C(=O)c2cc(OC)cc(OC)c2)n2nc(C)ccc12
band B
CN1CCc2c(sc3nc4n(-c5ccc(Cl)cc5)cnn4c(=O)c23)C1
band C

Assign a bin to "COc1ccc(/C=C2/SC(=S)NC2=O)c(OC)c1OC"
band B

# repeat for "O=C1/C=C/[C@@H](O)[C@@H]2C[C@@H](O)C[C@H]2/C=C/CCC[C@H](CCc2ccc(C(F)(F)F)cc2)O1"
band A

# repeat for "C/C=C/CSC(C)(C)C(=O)NC"
band C
